# experimental-system: oncogenic Ras in isolated EJ cell membranes (Homo sapiens, UniProt P01112, G12V)
# Sequence (P01112 1-186 G12V limits assumed): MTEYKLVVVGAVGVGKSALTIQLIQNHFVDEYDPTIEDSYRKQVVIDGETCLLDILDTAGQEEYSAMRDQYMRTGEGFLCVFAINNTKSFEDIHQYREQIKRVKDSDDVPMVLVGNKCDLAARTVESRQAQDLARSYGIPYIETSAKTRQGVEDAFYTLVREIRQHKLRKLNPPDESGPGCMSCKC
# method-summary: Cell-free assay: dislodging of Ras from isolated EJ cell membranes
# experimental-conditions: cell free, 60 min at 37° C.
# Description: The cell-free assay is utilized in these next experiments; i.e. the effect of FTS on Ras in isolated membranes was investigated. Briefly, we used EJ cell membranes (total particulate fraction) prepared in homogenization buffer (10 mM Tris-HCl, pH 8.5, 0.32 M sucrose) with protease inhibitors. The membranes were stored in aliquot at −70° C. and thawed prior to use. […]
pEC50: −log10 of the molar value.
parameter: pEC50

| chemical-structure | experimental-system | result |
| --- | --- | --- |
| CC(C)=CCCC(C)=CCCC(C)=CCSc1ccccc1C(=O)O | oncogenic Ras in isolated EJ cell membranes (Homo sapiens, UniProt P01112, G12V) | 4.82 to 5.00 |
